Data origin, for the record: patent US20230129258A1

tgt: CD137 (Homo sapiens, UniProt Q07011)
Sequence (Q07011 24-255): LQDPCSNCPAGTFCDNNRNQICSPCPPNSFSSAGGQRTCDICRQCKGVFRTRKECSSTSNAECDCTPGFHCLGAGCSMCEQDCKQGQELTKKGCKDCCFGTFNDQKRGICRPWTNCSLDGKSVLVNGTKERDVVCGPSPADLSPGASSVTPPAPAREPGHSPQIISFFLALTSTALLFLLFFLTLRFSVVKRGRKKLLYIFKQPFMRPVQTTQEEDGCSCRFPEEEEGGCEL
procedure_details: CD137 reporter assay (Promega, Jurkat cells) in co-culture with EphA2-expressing tumor cells (A549, PC3, HT29)
Format: cell-based
Design: host or cells: Jurkat reporter cells
condition_summary: CD137 reporter coculture assay with PC3 tumor cells; read-out: Emax (fold induction over background)
Starred links: 1 amine or outer side, 2 acyl side, 3 side chain; linkers in the order of their positions; H or OH if unused. Positions of bridges follow the written chain, without caps; N, C: chain ends. Non-standard residues stand in square brackets, D forms with d. Chains are numbered I, II in the order given. X1 = O=C(CCOCCOCCOCCN(CCOCCOCCOCCn1cc(CCC(=O)[*:2])nn1)CCOCCOCCOCCn1cc(CCC(=O)[*:3])nn1)[*:1]; TATA = O=C(CC[*:1])N1CN(C(=O)CC[*:2])CN(C(=O)CC[*:3])C1; Hyp = O=C(O)[C@@H]1C[C@@H](O)CN1; hArg = N=C(N)NCCCC[C@H](N)C(=O)O; tBuAla = CC(C)(C)C[C@H](N)C(=O)O; Aad = N[C@@H](CCCC(=O)O)C(=O)O; Nle = CCCC[C@H](N)C(=O)O
measured_property: fold induction

>>> quantitative_readout("I: ADC[Hyp]LVNPLCLEP[dD]WTC-NH2 / II: Ac-C[tBuAla]PE[dK]PYCFADPY[Nle]CA-NH2 / III: Ac-C[tBuAla]PE[dK]PYCFADPY[Nle]CA-NH2 (linker I:3-I:10-I:17, II:1-II:8-II:15, III:1-III:8-III:15 via TATA; linker I:N-II:5-III:5 via X1) [BCY13282]")
40
>>> quantitative_readout("I: [dA]EDC[Hyp]LVNPLCLEP[dD]WTC-NH2 / II: Ac-C[tBuAla]PE[dK]PYCFADPY[Nle]CA-NH2 / III: Ac-C[tBuAla]PE[dK]PYCFADPY[Nle]CA-NH2 (linker I:4-I:11-I:18, II:1-II:8-II:15, III:1-III:8-III:15 via TATA; linker I:N-II:5-III:5 via X1) [BCY13280]")
38.1
>>> quantitative_readout("I: Ac-A[hArg]DC[Hyp]KVNPLCLHP[dD]W[hArg]C-NH2 / II: Ac-C[tBuAla]PE[dK]PYCFADPY[Nle]CA-NH2 / III: Ac-C[tBuAla]PE[dK]PYCFADPY[Nle]CA-NH2 (linker I:4-I:11-I:18, II:1-II:8-II:15, III:1-III:8-III:15 via TATA; linker I:6-II:5-III:5 via X1) [BCY12975]")
68.8
>>> quantitative_readout("I: A[hArg]DC[Hyp]LVNPLCLHP[dE]W[hArg]C-NH2 / II: Ac-C[tBuAla]PE[dK]PYCFADPY[Nle]CA-NH2 / III: Ac-C[tBuAla]PE[dK]PYCFADPY[Nle]CA-NH2 (linker I:4-I:11-I:18, II:1-II:8-II:15, III:1-III:8-III:15 via TATA; linker I:N-II:5-III:5 via X1) [BCY12977]")
67.2
>>> quantitative_readout("I: A[hArg]DC[Hyp][Aad]VNPLCLHP[dD]W[hArg]C-NH2 / II: Ac-C[tBuAla]PE[dK]PYCFADPY[Nle]CA-NH2 / III: Ac-C[tBuAla]PE[dK]PYCFADPY[Nle]CA-NH2 (linker I:4-I:11-I:18, II:1-II:8-II:15, III:1-III:8-III:15 via TATA; linker I:N-II:5-III:5 via X1) [BCY13284]")
34.7
>>> quantitative_readout("I: A[hArg]DC[Hyp]LVNPLCL[Nle]P[dD]W[hArg]C-NH2 / II: Ac-C[tBuAla]PE[dK]PYCFADPY[Nle]CA-NH2 / III: Ac-C[tBuAla]PE[dK]PYCFADPY[Nle]CA-NH2 (linker I:4-I:11-I:18, II:1-II:8-II:15, III:1-III:8-III:15 via TATA; linker I:N-II:5-III:5 via X1) [BCY13289]")
45.8
